Measured values drawn from patent US12441768B2 for this set.

Molecular target: β-catenin (Homo sapiens, UniProt P35222)
Sequence (P35222 whole entry): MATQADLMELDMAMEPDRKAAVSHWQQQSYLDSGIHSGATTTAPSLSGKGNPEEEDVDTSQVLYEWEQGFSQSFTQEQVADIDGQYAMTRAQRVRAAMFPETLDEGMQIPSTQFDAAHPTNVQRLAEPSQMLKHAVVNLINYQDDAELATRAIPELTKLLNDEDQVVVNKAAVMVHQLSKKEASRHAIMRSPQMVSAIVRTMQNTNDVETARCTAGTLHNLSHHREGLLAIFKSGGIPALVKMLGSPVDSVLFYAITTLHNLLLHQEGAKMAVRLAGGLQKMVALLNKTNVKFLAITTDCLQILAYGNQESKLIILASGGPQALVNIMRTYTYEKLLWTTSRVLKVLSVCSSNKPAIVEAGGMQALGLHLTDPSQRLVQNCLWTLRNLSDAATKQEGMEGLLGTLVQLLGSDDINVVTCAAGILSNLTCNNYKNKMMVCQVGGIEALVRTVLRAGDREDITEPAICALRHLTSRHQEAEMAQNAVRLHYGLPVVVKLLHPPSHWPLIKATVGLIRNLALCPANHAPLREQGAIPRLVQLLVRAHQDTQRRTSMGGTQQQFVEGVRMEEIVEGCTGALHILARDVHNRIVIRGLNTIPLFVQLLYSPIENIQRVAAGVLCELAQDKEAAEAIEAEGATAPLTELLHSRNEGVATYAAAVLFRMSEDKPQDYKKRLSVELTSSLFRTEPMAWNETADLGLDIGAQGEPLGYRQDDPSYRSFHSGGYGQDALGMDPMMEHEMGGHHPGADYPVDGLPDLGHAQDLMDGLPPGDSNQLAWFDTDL
Test: KD50 measurement using competitive fluorescence polarization (FP) with labelled TCF4
Format: binding
Conditions: fluorescence polarization, β-catenin; read-out: β-Cat FP KD
pKd: −log10 of the molar value. Where a SMILES comes first, the peptide text is derived from it.
measurement_type: pKd

## Input Consider the compound CC[C@H](C)[C@H](NC(=O)[C@H](CC(C)C)NC(=O)[C@@H](NC(=O)C(C)(Cc1c[nH]c2ccccc12)NC(=O)[C@@H](N)CCSC)[C@@H](C)CC)C(=O)N[C@@H](CS)C(=O)N[C@@H](Cc1ccccc1)C(=O)N[C@@H](Cc1c[nH]c2ccccc12)C(=O)NCC(=O)O (stereo partly shown) [compound 132] (HELM PEPTIDE1{M.[CC(Cc1c[nH]c2ccccc12)(N[*:1])C(=O)[*:2]].I.L.I.C.F.W.G}$$$$V2.0) and give its measured pKd.
## Output > 6.40
